Overview of recorded growth inhibition by drug plus 177Lu-lilotomab satetraxetan for various molecules
- Tested on: RIVA
- assay: growth inhibition by drug plus 177Lu-lilotomab satetraxetan (1 - RLU/untreated control) (fraction); higher = stronger inhibition
- condition.label: 100 nM; time (day): 3; 177Lu-lilotomab satetraxetan 0.5 ug/ml
// no unit string in output, number only

Examples with their reported growth inhibition by drug plus 177Lu-lilotomab satetraxetan follow.
* C[C@H](NC(=O)Cc1cc(F)cc(F)c1)C(=O)N[C@H](C(=O)OC(C)(C)C)c1ccccc1 | 0.341
* Cc1nc(Nc2ncc(C(=O)Nc3c(C)cccc3Cl)s2)cc(N2CCN(CCO)CC2)n1 | 0.838

Consider the record given below.
Req: Give the measured growth inhibition by drug plus 177Lu-lilotomab satetraxetan for "CN1CCN(CCOc2cc(OC3CCOCC3)c3c(Nc4c(Cl)ccc5c4OCO5)ncnc3c2)CC1"
Resp: 0.458

----------
Overview of recorded growth inhibition by drug alone for various molecules
- Test system: U-2932
- assay: growth inhibition by drug alone (1 - RLU/untreated control) (fraction); higher = stronger inhibition
- condition.label: 10 nM; time (day): 5; 177Lu-lilotomab satetraxetan 0 ug/ml
// no unit string in output, number only

Examples with their reported growth inhibition by drug alone follow.
• Nc1nccc(-c2ccc3noc(-c4ccc(Cl)cc4)c3c2)n1 = 7.17e-05
• COc1c(C)cnc(Cn2cnc3c(Cl)nc(N)nc32)c1C = 0.017
• CC(C)C(=O)Nc1ccc([N+](=O)[O-])c(C(F)(F)F)c1 [Flutamide (Eulexin)] = 0.0103
• CCN(CC)CCNC(=O)c1c(C)[nH]c(/C=C2\C(=O)Nc3ccc(F)cc32)c1C [Sunitinib Malate (Sutent)] = -0.0625
• O=C(NCCCNc1nc(Nc2cccc(NC(=O)N3CCCC3)c2)ncc1I)c1cccs1 = 0.0194
• CCc1cncnc1N1CCN(Cc2nc3ccc(C(F)(F)F)cc3[nH]2)CC1 = -0.0751
• COc1ccc(C2=N[C@@H](c3ccc(Cl)cc3)[C@@H](c3ccc(Cl)cc3)N2C(=O)N2CCNC(=O)C2)c(OC(C)C)c1 = -0.094
• CC[C@@H]1C(=O)N(C)c2cnc(Nc3ccc(C(=O)N[C@H]4CC[C@H](N5CCN(CC6CC6)CC5)CC4)cc3OC)nc2N1C(C)C = 0.308
• CCC1=C[C@@H]2CN(C1)Cc1c([nH]c3ccccc13)[C@@](C(=O)OC)(c1cc3c(cc1OC)N(C)[C@H]1[C@@](O)(C(=O)OC)[C@H](OC(C)=O)[C@]4(CC)C=CCN5CC[C@]31[C@@H]54)C2 = 0.595

Consider the record given below.
Req: Give the measured growth inhibition by drug alone for "C[C@@H]1CN(CC(=O)Nc2ccc3c(c2)Cc2cccc(-c4cc(=O)cc(N5CCOCC5)o4)c2S3)C[C@H](C)O1"
Resp: -0.128

----------
- Tested on: RIVA
- assay: growth inhibition by drug alone (1 - RLU/untreated control) (fraction); higher = stronger inhibition
- condition.label: 10 nM; time (day): 4; 177Lu-lilotomab satetraxetan 0 ug/ml
Overview of recorded growth inhibition by drug alone for various compounds

- O=C1c2ccccc2-c2nc3nonc3nc21: -0.0693
- Cc1cccc(-c2nn3c(c2-c2ccnc4ccc(C(N)=O)cc24)CCC3)n1: -0.26
- C=CCc1cccc(/C=N/NC(=O)CN2CCN(Cc3ccccc3)CC2)c1O: 0.0184
- Nc1nc(OCc2cc(Br)cs2)c2[nH]cnc2n1: -0.0435

Consider the record given below.
Req: Give the measured growth inhibition by drug alone for "CC(=O)Nc1cccc(-n2c(=O)n(C3CC3)c(=O)c3c(Nc4ccc(I)cc4F)n(C)c(=O)c(C)c32)c1"
Resp: 0.00936

----------
Overview of recorded growth inhibition by drug plus 177Lu-lilotomab satetraxetan for various molecules
- System: RIVA
- assay: growth inhibition by drug plus 177Lu-lilotomab satetraxetan (1 - RLU/untreated control) (fraction); higher = stronger inhibition
- condition.label: 10 nM; time (day): 3; 177Lu-lilotomab satetraxetan 0.5 ug/ml
// no unit string in output, number only

Examples with their reported growth inhibition by drug plus 177Lu-lilotomab satetraxetan follow.
- CC(=O)O[C@]1(C(C)=O)CC[C@H]2[C@@H]3C[C@H](C)C4=CC(=O)CC[C@]4(C)[C@H]3CC[C@@]21C [Medroxyprogesterone acetate]: 0.422
- CC(c1cc2ccccc2s1)N(O)C(N)=O (centres undefined): 0.389
- OCCn1cc(-c2ccc3c(c2)CC/C3=N\O)c(-c2ccncc2)n1: 0.513

Consider the record given below.
Req: Give the measured growth inhibition by drug plus 177Lu-lilotomab satetraxetan for "CC(=O)Nc1nc(C)c(-c2ccc(Cl)c(S(=O)(=O)NCCO)c2)s1"
Resp: 0.348

----------
Overview of recorded growth inhibition by drug alone for various compounds
- System: RIVA
- assay: growth inhibition by drug alone (1 - RLU/untreated control) (fraction); higher = stronger inhibition
- condition.label: 100 nM; time (day): 4; 177Lu-lilotomab satetraxetan 0 ug/ml
Where a name gives a salt, the structure may show the parent alone.
// no unit string in output, number only

- CCc1cc(Nc2nccc(-c3c(-c4ccc(OC)c(C(=O)Nc5c(F)cccc5F)c4)nc4ccccn34)n2)c(OC)cc1N1CCC(N2CCN(S(C)(=O)=O)CC2)CC1: 0.0778
- Cc1[nH]c2ccccc2c1CCNCc1ccc(/C=C/C(=O)NO)cc1: 0.977
- CC(=O)Nc1nc(C)c(-c2ccc(Cl)c(S(=O)(=O)NCCO)c2)s1: -0.0663
- CN(Cc1cnc2nc(N)nc(N)c2n1)c1ccc(C(=O)N[C@@H](CCC(=O)O)C(=O)O)cc1 [Abitrexate (Methotrexate)]: -0.184
- Clc1ccc(Nc2nnc(Cc3ccncc3)c3ccccc23)cc1 [Vatalanib dihydrochloride (PTK787)]: -0.0658

Req: Quote growth inhibition by drug alone with test system RIVA for "c1ccc2c(-c3cnn4cc(-c5ccc(N6CCNCC6)cc5)cnc34)ccnc2c1"
Resp: -0.254

Req: Quote growth inhibition by drug alone with test system RIVA for "Cn1cnc([N+](=O)[O-])c1Sc1ncnc2[nH]cnc12"
Resp: -0.224

Req: Quote growth inhibition by drug alone with test system RIVA for "O=C(O)CC[C@H]1CC[C@@](c2cc(F)ccc2F)(S(=O)(=O)c2ccc(Cl)cc2)CC1"
Resp: -0.2

Req: Quote growth inhibition by drug alone with test system RIVA for "Nc1ccccc1NC(=O)c1ccc(CNc2nccc(-c3cccnc3)n2)cc1"
Resp: 0.254

Req: Quote growth inhibition by drug alone with test system RIVA for O=C1CN2Cc3c(ccc(Cl)c3Cl)N=C2N1 [Anagrelide]
Resp: 0.019

Req: Quote growth inhibition by drug alone with test system RIVA for "C=CCn1c(=O)c2cnc(Nc3ccc(N4CCN(C)CC4)cc3)nc2n1-c1cccc(C(C)(C)O)n1"
Resp: -0.354

Req: Quote growth inhibition by drug alone with test system RIVA for "COc1ccc2c3n(c(=NC(=O)c4cccnc4)nc2c1OC)CCN3"
Resp: 0.0435

Req: Quote growth inhibition by drug alone with test system RIVA for "Cc1ccc([N+](=O)[O-])cc1S(=O)(=O)N(C)/N=C/c1cnc2ccc(Br)cn12"
Resp: 0.599

Req: Quote growth inhibition by drug alone with test system RIVA for "CN(C)Cc1c(C(=O)NCCOc2ccc(C(=O)NO)cc2)oc2ccccc12"
Resp: 0.295

Req: Quote growth inhibition by drug alone with test system RIVA for CNC(=O)c1cc(Oc2ccc(NC(=O)Nc3cc(C(C)(C)C)nn3-c3ccc4ncccc4c3)c(F)c2)ccn1 [DCC-2036 (Rebastinib)]
Resp: -0.203

Req: Quote growth inhibition by drug alone with test system RIVA for CS(=O)(=O)CCNCc1ccc(-c2ccc3ncnc(Nc4ccc(OCc5cccc(F)c5)c(Cl)c4)c3c2)o1 [Lapatinib Ditosylate (Tykerb)]
Resp: -0.179

Req: Quote growth inhibition by drug alone with test system RIVA for CC(C)C(=O)Nc1ccc([N+](=O)[O-])c(C(F)(F)F)c1 [Flutamide (Eulexin)]
Resp: 0.0232

Req: Quote growth inhibition by drug alone with test system RIVA for "Cn1cc(-c2ccc3nnc(Sc4ccc5ncccc5c4)n3n2)cn1"
Resp: 0.0223

----------
Overview of recorded growth inhibition by drug plus 177Lu-lilotomab satetraxetan for various compounds
- Test system: RIVA
- assay: growth inhibition by drug plus 177Lu-lilotomab satetraxetan (1 - RLU/untreated control) (fraction); higher = stronger inhibition
- condition.label: 10 nM; time (day): 5; 177Lu-lilotomab satetraxetan 0.5 ug/ml
Counter-ions that a name gives are not always drawn.
// no unit string in output, number only

Req: Quote growth inhibition by drug plus 177Lu-lilotomab satetraxetan with test system RIVA for "N#Cc1ccc(C(c2ccc(C#N)cc2)n2cncn2)cc1"
Resp: 0.524

Req: Quote growth inhibition by drug plus 177Lu-lilotomab satetraxetan with test system RIVA for "CC(C)(C)c1ccc(S(=O)(=O)/C=C/C#N)cc1"
Resp: 0.567

Req: Quote growth inhibition by drug plus 177Lu-lilotomab satetraxetan with test system RIVA for COc1cccc2c1C(=O)c1c(O)c3c(c(O)c1C2=O)C[C@@](O)(C(C)=O)C[C@@H]3O[C@H]1C[C@H](N)[C@H](O)[C@H](C)O1 [Daunorubicin HCl (Daunomycin HCl)]
Resp: 0.868

Req: Quote growth inhibition by drug plus 177Lu-lilotomab satetraxetan with test system RIVA for "CC[C@]1(O)C[C@@H]2CN(CCc3c([nH]c4ccccc34)[C@@](C(=O)OC)(c3cc4c(cc3OC)N(C)[C@H]3[C@@](O)(C(=O)OC)[C@H](OC(C)=O)[C@]5(CC)C=CCN6CC[C@]43[C@@H]65)C2)C1"
Resp: 0.523

Req: Quote growth inhibition by drug plus 177Lu-lilotomab satetraxetan with test system RIVA for "NC(=O)Nc1sc(-c2ccc(F)cc2)cc1C(N)=O"
Resp: 0.584

Req: Quote growth inhibition by drug plus 177Lu-lilotomab satetraxetan with test system RIVA for "O=C(O)C1(C(=O)O)CCC1.[NH2-].[NH2-].[Pt+2]"
Resp: 0.538

Req: Quote growth inhibition by drug plus 177Lu-lilotomab satetraxetan with test system RIVA for "CC[C@H](Nc1ncnc2[nH]cnc12)c1nc2cccc(F)c2c(=O)n1-c1ccccc1"
Resp: 0.484
